B1: VH:VL chains; a variant is named by its letters at X, in order (parent)
chain 1: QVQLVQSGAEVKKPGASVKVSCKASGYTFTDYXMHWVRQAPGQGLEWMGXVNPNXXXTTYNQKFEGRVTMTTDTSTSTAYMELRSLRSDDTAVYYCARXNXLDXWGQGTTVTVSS
chain 2: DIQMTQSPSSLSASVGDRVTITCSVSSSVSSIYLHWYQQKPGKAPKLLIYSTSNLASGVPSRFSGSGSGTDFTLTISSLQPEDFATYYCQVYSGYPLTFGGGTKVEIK

variants of: B1; test: yeast display scFab, FACS + sequencing
Reported Property: non-specific binding call

Mutant Name	Reported Property	Result
VKGRGASV	non-specific binding call	binds
VKREASVV	non-specific binding call	binds
ARARGSWV	non-specific binding call	binds
DKEGGDVD	non-specific binding call	no binding
VKGKGDVY	non-specific binding call	no binding
YRGRSFAV	non-specific binding call	binds
DAGGGSSD	non-specific binding call	no binding
VEEEGDAV	non-specific binding call	no binding
YREKDSAD	non-specific binding call	no binding
YKRGSAWD	non-specific binding call	binds
AGTRSFGY	non-specific binding call	binds
VRTEDDWS	non-specific binding call	no binding
YKGKGDAD	non-specific binding call	binds
DRRGDDVF	non-specific binding call	no binding
VEAGDAAV	non-specific binding call	no binding
FRTKDDVY chain 1 E46K	non-specific binding call	binds
FRGRDFLD	non-specific binding call	binds
YRRRSAVA	non-specific binding call	binds
DAATAYGS	non-specific binding call	binds
FRGRGSSY	non-specific binding call	binds
YKGEGYGV	non-specific binding call	binds
FAEGDDVV	non-specific binding call	no binding
FEAGDSGA	non-specific binding call	no binding
SEARNDGA	non-specific binding call	no binding
YRAETDGV	non-specific binding call	no binding
YRGKGAWS	non-specific binding call	binds
YRTRGSLY	non-specific binding call	binds
